- protocol: Cmax in rat at 10 mg/kg, po
- Format: ADME, organism-based
- Parameters: dose 10 mg/kg, route oral
- condition: in vivo
metric name: Cmax (ng/mL)

• Cc1cc2c(CC(=O)O)cccc2n1C(=O)c1ccc(OC[C@@H]2CN(C)c3ccccc3O2)cc1 = 3500

(A) CN1C[C@@H](COc2ccc(C(=O)Nc3cccc(CC(=O)O)c3)cc2)Oc2ccccc21
(B) Cc1ccc(CC(=O)O)cc1NC(=O)c1ccc(OC[C@@H]2CN(C)c3ccccc3O2)cc1C
Task: I need your help: which of the pair A , B has higher Cmax? Mark your answer with the label of the selected entry.
Output: B

---

- study system: Prostaglandin D2 receptor (Mus musculus, UniProt P70263)
- Sequence (P70263 whole entry): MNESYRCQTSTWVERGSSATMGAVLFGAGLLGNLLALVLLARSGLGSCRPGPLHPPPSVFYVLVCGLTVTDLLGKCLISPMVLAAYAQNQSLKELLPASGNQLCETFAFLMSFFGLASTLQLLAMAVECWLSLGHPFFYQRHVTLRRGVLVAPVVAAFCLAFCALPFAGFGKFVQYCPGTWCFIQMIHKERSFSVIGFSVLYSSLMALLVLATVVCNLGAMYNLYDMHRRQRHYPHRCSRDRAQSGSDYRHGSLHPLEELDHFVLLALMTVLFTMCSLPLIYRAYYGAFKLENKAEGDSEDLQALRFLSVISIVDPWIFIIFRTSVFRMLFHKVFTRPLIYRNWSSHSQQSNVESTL
- protocol: Displacement of [3H]PGD2 from mouse prostanoid DP receptor expressed in CHO cells after 20 mins by liquid scintillation counting
metric name: Ki (nM)

// solved cases for Ki follow
• Cc1ccc(NC(=O)c2ccc(OC[C@@H]3CN(C)c4ccccc4O3)cc2C)cc1CC(=O)O = 11
• CCN(C(=O)c1ccc(OC[C@@H]2CN(C)c3ccccc3O2)cc1)c1cccc(CC(=O)O)c1 = 770

(P) CN1C[C@@H](COc2ccc(S(=O)(=O)Nc3cccc(CC(=O)O)c3)cc2)Oc2ccccc21
(Q) CN1C[C@@H](COc2ccc(C(=O)Nc3cccc(CC(=O)O)c3)c(Cl)c2)Oc2ccccc21
Task: I need your help: which of the pair P , Q has higher Ki? Mark your answer with the label of the selected entry.
Output: P
(P: 430 nM, Q: 16 nM)
